# target system: T1, monomeric recombinant human Notch3 extracellular domain (containing EGF like domains 1-11) fusion protein (human, UniProt Q9UM47 40-467)
# T1 construct: domain: EGF like domains 1-11; also called monomeric rhNotch3
# T1 sequence (looked up): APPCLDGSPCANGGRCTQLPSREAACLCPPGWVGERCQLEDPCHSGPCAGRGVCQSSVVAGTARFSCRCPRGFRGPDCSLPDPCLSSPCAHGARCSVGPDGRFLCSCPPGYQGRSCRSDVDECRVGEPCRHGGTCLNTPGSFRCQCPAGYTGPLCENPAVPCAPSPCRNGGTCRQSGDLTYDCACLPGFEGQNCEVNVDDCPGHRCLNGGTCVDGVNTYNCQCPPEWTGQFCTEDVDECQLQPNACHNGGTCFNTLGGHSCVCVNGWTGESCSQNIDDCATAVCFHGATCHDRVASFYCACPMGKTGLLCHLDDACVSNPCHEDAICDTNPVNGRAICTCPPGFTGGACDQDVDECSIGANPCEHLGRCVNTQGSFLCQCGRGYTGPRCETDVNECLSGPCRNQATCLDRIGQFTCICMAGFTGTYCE
# protocol text: SPR BIAcore T100, monomeric rhNotch3 analyte, 37 C, average of Table 16 and additional measurements
# Description: Goat anti-human IgGs (Fc fragment specific, Jackson ImmunoResearch, West Grove, Pa.) were immobilized on carboxymethylated dextran CM4 sensor chips by amine coupling, according to a standard protocol. Analyses were performed at 25 and 37° C. using PBS containing 0.05% surfactant P20 as running buffer. The antibodies were captured in individual flow cells at a flow rate of 10 μL/minute. […] The dissociation phase was monitored for up to 900 seconds. […]
metric: koff (s⁻¹)
Give just the number in s⁻¹; leave the unit off.

Examples from the recorded data:
binder	metric	value reported
Hu4F11-72 (antibody, human IgG1, kappa, V domains shown, Humanized, human IgG1 kappa; Hv3-23 S31H T62S heavy + Kv2D-29 N28H kappa) VH: EVQLLESGGGLVQPGGSLRLSCAASGFAFSHYDMSWVRQAPGKGLEWVSYISRGGGSTYYPDSVKGRFTISRDNSKNTLYLQMNSLRAEDTAVYYCGRHATTAYWYFDVWGQGTMVTVSS VL: DVVMTQTPLSLSVTPGQPASISCRSSQSLVHTHGNTYLHWYLQKPGQSPQLLIYKVSNRFSGVPDRFSGSGSGTDFTLKISRVEAEDVGVYFCSQSTHVPWTFGQGTKVEIKR	koff	0.0069
Hu4F11-80 (antibody, human IgG1, kappa, V domains shown, Humanized, human IgG1 kappa; Hv3-23 S31H T62S heavy + Kv2D-29 N28Q kappa) VH: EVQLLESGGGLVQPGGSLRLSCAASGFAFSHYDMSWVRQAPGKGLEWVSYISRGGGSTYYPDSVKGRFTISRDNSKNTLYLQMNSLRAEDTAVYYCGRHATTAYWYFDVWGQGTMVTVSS VL: DVVMTQTPLSLSVTPGQPASISCRSSQSLVHTQGNTYLHWYLQKPGQSPQLLIYKVSNRFSGVPDRFSGSGSGTDFTLKISRVEAEDVGVYFCSQSTHVPWTFGQGTKVEIKR	koff	0.0056

Next:
Entry Hu4F11-74 (antibody, human IgG1, kappa, V domains shown, Humanized, human IgG1 kappa; Hv3-23 A28T S31H T62S heavy + Kv2D-29 N28Y kappa) VH: EVQLLESGGGLVQPGGSLRLSCAASGFTFSHYDMSWVRQAPGKGLEWVSYISRGGGSTYYPDSVKGRFTISRDNSKNTLYLQMNSLRAEDTAVYYCGRHATTAYWYFDVWGQGTMVTVSS VL: DVVMTQTPLSLSVTPGQPASISCRSSQSLVHTYGNTYLHWYLQKPGQSPQLLIYKVSNRFSGVPDRFSGSGSGTDFTLKISRVEAEDVGVYFCSQSTHVPWTFGQGTKVEIKR needs its koff filled in; supply it. 0.0051
